target: UniProt:Q6IN02; assay: Peg3 promoter luciferase inhibitors, potency, dose response, cell-based, HeLa, CREF/GAPDH counter-screen panel (AID 624167); conditions: HeLa PEG-Prom luciferase reporter, overnight, CREF/GAPDH counter-screens, mean of runs
Sequence (Q6IN02 whole entry, looked up): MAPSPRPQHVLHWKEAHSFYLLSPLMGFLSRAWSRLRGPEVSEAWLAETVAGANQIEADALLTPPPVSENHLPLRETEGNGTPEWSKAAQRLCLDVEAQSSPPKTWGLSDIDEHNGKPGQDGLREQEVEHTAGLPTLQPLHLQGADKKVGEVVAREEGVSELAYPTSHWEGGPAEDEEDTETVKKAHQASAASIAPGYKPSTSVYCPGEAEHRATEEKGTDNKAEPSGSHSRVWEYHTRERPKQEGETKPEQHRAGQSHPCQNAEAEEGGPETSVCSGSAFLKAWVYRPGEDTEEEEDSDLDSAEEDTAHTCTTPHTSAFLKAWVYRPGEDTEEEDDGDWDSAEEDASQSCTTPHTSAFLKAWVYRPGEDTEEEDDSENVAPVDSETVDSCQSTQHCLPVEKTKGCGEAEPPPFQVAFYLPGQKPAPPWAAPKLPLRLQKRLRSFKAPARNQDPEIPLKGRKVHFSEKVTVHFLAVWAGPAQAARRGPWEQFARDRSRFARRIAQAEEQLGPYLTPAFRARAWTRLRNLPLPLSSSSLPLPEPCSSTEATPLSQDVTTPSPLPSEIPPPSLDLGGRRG
Active and inactive are the calls of the source.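 How the source made its calls: active means mean IC50 for reducing PEG3 promoter reporter signal at or below a set limit, with IC50 above the limit in both counter screens; inactive means the rest, including counter screen hits.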
Classes used: YES for active, NO for inactive

compound: Cc1cc(C2=NNC(=NC3CC3)SC2)c(C)n1-c1ccccc1F
label value: YES
//
compound: CN1CCN(c2ccc(-c3ccc4ccccc4n3)cc2)CC1
label value: NO
//
compound: CC(Cc1ccccc1)NCCC(c1ccccc1)c1ccccc1 (stereo unspecified)
label value: YES
//
compound: CCc1nc(Sc2nnnn2-c2ccccc2)c2c3c(sc2n1)CCCC3
label value: NO
//
compound: Cc1ccc(-n2[nH]c(=O)c(-c3ccccn3)c2C)cc1
label value: YES
//
compound: O=C(Nc1ccccc1)c1nc[nH]c1C(=O)NCCCCCCNC(=O)c1[nH]cnc1C(=O)Nc1ccccc1
label value: NO
//
compound: O=C1NC(=O)N(Cc2ccco2)C(=O)/C1=C/C=C/c1ccco1
label value: YES
//
compound: O=C1c2ccccc2C(=O)C12OC2c1ccc(Cl)cc1Cl (stereo unspecified)
label value: NO
//
compound: COC(=O)c1ccc(OCC2c3cc(OC)c(OC)cc3CCN2C(=O)c2ccco2)cc1 (stereo unspecified)
label value: YES
//
compound: Cc1ccc(-c2cc(-c3ccc(C)cc3)[n+](-c3ccccc3)c(-c3ccc(C)cc3)c2)cc1
label value: NO
//
compound: Oc1ccc(C23CCCC2C2(CCCC2)c2ccc(O)cc2O3)c(O)c1 (stereo unspecified)
label value: NO
//
compound: c1ccc(CN=C(NCc2ccccc2)NCc2ccccc2)cc1
label value: NO
//
compound: COc1ccc(NC(=O)N(C)[C@H]2C[C@H]3c4[nH]c5ccc(-c6cccc(C)c6)cc5c4CCN3C[C@H]2[C@H](C)O)cc1
label value: NO
//
compound: CN(C)C=NC(=O)c1[nH]c2ccc(Cl)cc2c1-c1ccccc1
label value: YES
//
compound: CCCCC(=O)NC(c1ccccc1OC)c1ccc2cccnc2c1O (stereo unspecified)
label value: YES
//
compound: O=C(/C=C/Nc1ccccc1Br)c1ccccn1
label value: YES
//
compound: Cc1cc(C)c2sc(N(CCCN(C)C)C(=O)c3ccc(S(=O)(=O)N4CCCc5ccccc54)cc3)nc2c1
label value: YES
//
compound: CC(=O)NC(c1ccc(Cl)cc1)c1ccc2cccnc2c1O (stereo unspecified)
label value: YES
//
compound: C=CCn1c(C)cc(C(=O)COc2ccc(C)nc2[N+](=O)[O-])c1C
label value: YES
//
compound: O=C(O)c1ccc(N/N=C/c2ccc(OC(=O)c3ccccc3Cl)cc2)cc1
label value: NO
//
compound: CC(C)n1cc(CN2CCC(C(=O)Nc3cccc(-c4cccc(Cl)c4)c3)CC2)cn1
label value: YES

----------
Recorded IC50, one value per entry.
tested on: PEG-3; assay: Peg3 promoter luciferase inhibitors, potency, dose response, cell-based, HeLa, CREF/GAPDH counter-screen panel (AID 624167); details: HeLa PEG-Prom luciferase reporter, overnight, CREF/GAPDH counter-screens, run 1, dose range 1, individual replicate IC50 per panel

molecule: CS(=O)(=O)c1ccc(-c2cn3cc(C(=O)O)ccc3n2)cc1
scale unit: µM
operator: =
IC50: 6.91
//
molecule: CCCn1nc(C(=O)Nc2nc(-c3ccccn3)cs2)c2ccccc2c1=O
scale unit: µM
operator: =
IC50: 7.15
//
molecule: COc1ccc2c(c1)C=C([C@@H]1C[C@H]3CN(c4ccccc4)C(=O)[C@]34CCCN14)CO2
scale unit: µM
operator: >
IC50: 100
//
molecule: COc1ccc(/C=C/C(=O)c2ccc3c4c(cccc24)CC3)cc1OC
scale unit: µM
operator: =
IC50: 31.6
//
molecule: Cc1ccc(C(=O)Nc2nc3ccccc3[nH]2)cc1
scale unit: µM
operator: =
IC50: 2.02
//
molecule: Fc1ccc([C@@H]2CCNC[C@H]2COc2ccc3c(c2)OCO3)cc1
scale unit: µM
operator: =
IC50: 20
//
molecule: O=S(=O)(Nc1cccc2ncccc12)c1cccs1
scale unit: µM
operator: =
IC50: 17.5
//
molecule: N#C/C(=C\c1cccc([N+](=O)[O-])c1)C(=O)NCc1ccc(Cl)cc1
scale unit: µM
operator: =
IC50: 14.7
//
molecule: CCCC(=O)NC(c1ccc(C(C)C)cc1)c1ccc2cccnc2c1O (stereo unspecified)
scale unit: µM
operator: =
IC50: 1.94
//
molecule: CC(=O)Nc1ccc(NC(=O)c2nc(S(=O)(=O)Cc3cccc(C)c3)ncc2Cl)cc1
scale unit: µM
operator: =
IC50: 9.47
//
molecule: CCc1ccc(OCCNc2cc(N3CCNC(C)C3)ccc2[N+](=O)[O-])cc1 (stereo unspecified)
scale unit: µM
operator: =
IC50: 16.3
//
molecule: Cc1ccc(F)cc1-c1cc2nc(NCCCN(C)C)n(C)c(=O)c2s1
scale unit: µM
operator: =
IC50: 30.9
//
molecule: Cc1ccc(Cn2c(=N)n(CC(=O)c3ccccc3)c3ccccc32)cc1
scale unit: µM
operator: =
IC50: 15.4
//
molecule: O=C(O)c1ccc(N/N=C/c2ccc(OC(=O)c3ccccc3Cl)cc2)cc1
scale unit: µM
operator: =
IC50: 3.06
//
molecule: CCC1CCCCN1S(=O)(=O)c1ccc(C(=O)N(CCCN(C)C)c2nc3cc4c(cc3s2)OCO4)cc1 (stereo unspecified)
scale unit: µM
operator: =
IC50: 21.9
//
molecule: COC(COC(N)=O)C1=C(N2CC2)C(=O)C(C)=C(N2CC2)C1=O (stereo unspecified)
scale unit: µM
operator: =
IC50: 1.29
//
molecule: CN1CCC(N(C)C(=O)/C=C/c2cn(-c3ccccc3)nc2-c2cccs2)CC1
scale unit: µM
operator: =
IC50: 18.4
//
molecule: CC(=O)Nc1cccc(-c2ccnc3c2CC(C)(C(=O)Nc2cccc(C(F)(F)F)c2)O3)c1 (stereo unspecified)
scale unit: µM
operator: =
IC50: 5.21
//
molecule: Cc1ccc(C(=O)Nc2ncc([N+](=O)[O-])s2)cc1
scale unit: µM
operator: =
IC50: 2.01
//
molecule: Cc1nc(C)c(C(=O)N/N=C/c2cc(Br)ccc2O)s1
scale unit: µM
operator: =
IC50: 5.65
//
molecule: CCCC(=O)NC(c1ccc(Cl)cc1)c1ccc2cccnc2c1O (stereo unspecified)
scale unit: µM
operator: =
IC50: 2.29
